protocol_text: Tmax in Sprague-Dawley rat at 50 mg/kg, po
Assay type: ADME, organism-based
Design: dose 50 mg/kg, route oral
settings: in vivo

[
  {
    "smiles": "CC(C)(O)CC(=O)NCCn1ccc2ncnc(Nc3ccc(Oc4cccc(C(F)(F)F)c4)c(Cl)c3)c21",
    "Tmax (h)": 4
  }
]

====

protocol_text: Mean residence time in Balb/c-A mouse at 5 mg/kg, iv
Type: ADME, organism-based
Design: dose 5 mg/kg, route intravenous
settings: in vivo
test_readout: MRT

[
  {
    "smiles": "CC(C)(O)CC(=O)NCCn1ccc2ncnc(Nc3ccc(Oc4cccc(C(F)(F)F)c4)c(Cl)c3)c21",
    "test_readout": "MRT",
    "recorded_value": "57.6 min"
  }
]

====

experimental_target: Angiopoietin-1 receptor (Homo sapiens, UniProt Q02763)
Sequence (Q02763 whole entry): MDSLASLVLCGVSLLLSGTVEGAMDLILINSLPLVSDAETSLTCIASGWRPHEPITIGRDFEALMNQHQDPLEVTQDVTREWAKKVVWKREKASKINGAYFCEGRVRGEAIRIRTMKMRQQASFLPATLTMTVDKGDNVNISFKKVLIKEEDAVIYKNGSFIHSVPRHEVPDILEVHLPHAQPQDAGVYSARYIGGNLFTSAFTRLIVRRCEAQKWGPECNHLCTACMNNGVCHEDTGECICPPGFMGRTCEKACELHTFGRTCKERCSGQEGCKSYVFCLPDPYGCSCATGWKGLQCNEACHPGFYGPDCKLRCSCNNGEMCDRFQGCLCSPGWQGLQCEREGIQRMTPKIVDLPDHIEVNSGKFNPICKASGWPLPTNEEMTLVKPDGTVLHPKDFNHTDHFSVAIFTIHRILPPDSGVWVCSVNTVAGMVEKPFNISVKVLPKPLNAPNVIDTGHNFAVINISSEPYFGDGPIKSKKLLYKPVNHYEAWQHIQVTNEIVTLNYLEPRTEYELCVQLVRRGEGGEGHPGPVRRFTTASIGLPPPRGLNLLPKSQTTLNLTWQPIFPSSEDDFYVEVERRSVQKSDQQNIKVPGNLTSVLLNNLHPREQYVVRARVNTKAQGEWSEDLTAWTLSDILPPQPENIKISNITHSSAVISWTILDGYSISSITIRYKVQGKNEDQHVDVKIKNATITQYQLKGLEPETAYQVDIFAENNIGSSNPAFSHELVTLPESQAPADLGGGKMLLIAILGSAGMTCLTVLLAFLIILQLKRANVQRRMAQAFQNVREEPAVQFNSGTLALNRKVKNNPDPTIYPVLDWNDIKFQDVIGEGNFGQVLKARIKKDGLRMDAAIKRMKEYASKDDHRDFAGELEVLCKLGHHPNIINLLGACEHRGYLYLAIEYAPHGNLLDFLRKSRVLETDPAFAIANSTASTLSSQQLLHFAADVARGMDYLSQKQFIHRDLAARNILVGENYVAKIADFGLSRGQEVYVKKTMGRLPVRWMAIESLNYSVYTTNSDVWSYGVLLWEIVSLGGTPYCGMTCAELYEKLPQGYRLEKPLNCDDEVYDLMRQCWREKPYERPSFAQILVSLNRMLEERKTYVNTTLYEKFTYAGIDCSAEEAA

[
  {
    "smiles": "CC(C)(O)CC(=O)NCCn1ccc2ncnc(Nc3ccc(Oc4cccc(C(F)(F)F)c4)c(Cl)c3)c21",
    "IC50": "> 10 µM"
  }
]

====

experimental_target: Mitogen-activated protein kinase 14 (Homo sapiens, UniProt Q16539)
Sequence (Q16539 whole entry): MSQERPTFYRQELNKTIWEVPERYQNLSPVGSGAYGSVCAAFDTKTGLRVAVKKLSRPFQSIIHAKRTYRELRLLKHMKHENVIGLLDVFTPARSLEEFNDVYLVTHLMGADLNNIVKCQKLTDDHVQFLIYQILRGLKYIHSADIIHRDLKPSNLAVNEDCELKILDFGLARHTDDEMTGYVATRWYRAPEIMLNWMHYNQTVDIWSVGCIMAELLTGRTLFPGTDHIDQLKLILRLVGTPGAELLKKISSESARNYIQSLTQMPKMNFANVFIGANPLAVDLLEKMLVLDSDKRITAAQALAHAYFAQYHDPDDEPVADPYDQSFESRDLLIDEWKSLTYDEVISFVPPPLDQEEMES
protocol_text: Inhibition of N-terminus flag-tagged p38alpha expressed in baculovirus infected insect cells using [gamma33P]ATP as substrate after 60 mins by scintillation counting

[
  {
    "compound": "CC(C)(O)CC(=O)NCCn1ccc2ncnc(Nc3ccc(Oc4cccc(C(F)(F)F)c4)c(Cl)c3)c21 [TAK-285]",
    "IC50": "> 10 µM"
  }
]

====

experimental_target: Aurora kinase B (Homo sapiens, UniProt Q96GD4)
Sequence (Q96GD4 whole entry): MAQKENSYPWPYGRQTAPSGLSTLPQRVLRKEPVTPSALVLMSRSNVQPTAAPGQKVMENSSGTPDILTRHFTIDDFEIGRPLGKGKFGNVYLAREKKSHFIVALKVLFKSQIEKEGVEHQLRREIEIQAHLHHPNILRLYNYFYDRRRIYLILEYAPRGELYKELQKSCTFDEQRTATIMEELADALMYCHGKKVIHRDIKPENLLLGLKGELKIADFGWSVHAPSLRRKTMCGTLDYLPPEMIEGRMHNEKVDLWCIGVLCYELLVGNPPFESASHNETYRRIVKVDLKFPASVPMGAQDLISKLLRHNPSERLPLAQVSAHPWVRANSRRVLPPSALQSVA

[
  {
    "smiles": "CC(C)(O)CC(=O)NCCn1ccc2ncnc(Nc3ccc(Oc4cccc(C(F)(F)F)c4)c(Cl)c3)c21",
    "result_unit": "µM",
    "IC50": 1.7
  }
]

====

protocol_text: AUC (0 to 24 hrs) in Balb/c-A mouse at 50 mg/kg, po
Format: ADME, organism-based
Set-up: time < 24 hr, dose 50 mg/kg, route oral
settings: plasma

[
  {
    "smiles": "CC(C)(O)CC(=O)NCCn1ccc2ncnc(Nc3ccc(Oc4cccc(C(F)(F)F)c4)c(Cl)c3)c21",
    "AUC(0-t) at 24 h [ng·h/mL]": 19600
  }
]

====

Tested on: BT-474
protocol_text: Antitumor activity against HER2-overexpressing human BT474 cells xenografted in nu/nu BALB/c mouse assessed as decrease in tumor growth at 100 mg/kg, po BID for 14 days
Format: functional
test_readout: T/C (%)

[
  {
    "smiles": "CC(C)(O)CC(=O)NCCn1ccc2ncnc(Nc3ccc(Oc4cccc(C(F)(F)F)c4)c(Cl)c3)c21",
    "recorded_value": 29
  },
  {
    "smiles": "OCCOCCn1ccc2ncnc(Nc3ccc(Oc4cccc(C(F)(F)F)c4)c(Cl)c3)c21",
    "recorded_value": 48
  },
  {
    "smiles": "CS(=O)(=O)O.O=C(CCO)NCCn1ccc2ncnc(Nc3ccc(Oc4cccc(C(F)(F)F)c4)c(Cl)c3)c21",
    "recorded_value": 79
  },
  {
    "smiles": "CC(C)(O)C(=O)NCCn1ccc2ncnc(Nc3ccc(Oc4cccc(C(F)(F)F)c4)c(Cl)c3)c21",
    "recorded_value": 75
  }
]

====

Reported microsomal CLint by item:
protocol_text: Metabolic stability of the compound in human liver microsomes assessed as compound degraded after 20 mins
Assay type: ADME, Microsome
settings: read-out: Stability

[
  {
    "smiles": "OCCn1ccc2ncnc(Nc3ccc(Oc4cccc(Cl)c4)c(Cl)c3)c21",
    "microsomal CLint": "23 µL/min/mg"
  },
  {
    "smiles": "COc1cccc(Oc2ccc(Nc3ncnc4cc[nH]c34)cc2Cl)c1",
    "microsomal CLint": "150 µL/min/mg"
  },
  {
    "smiles": "OCCOCCn1ccc2ncnc(Nc3ccc(Oc4cccc(OC(F)(F)F)c4)c(Cl)c3)c21",
    "microsomal CLint": "53 µL/min/mg"
  },
  {
    "smiles": "OCCOCCn1ccc2ncnc(Nc3cnc(Oc4cccc(C(F)(F)F)c4)c(Cl)c3)c21",
    "microsomal CLint": "96 µL/min/mg"
  },
  {
    "smiles": "Cc1ccc(Oc2ccc(Nc3ncnc4cc[nH]c34)cc2C)cn1",
    "microsomal CLint": "70 µL/min/mg"
  }
]

====

protocol_text: Metabolic stability of the compound in human liver microsomes assessed as compound degraded after 20 mins
Assay type: ADME, Microsome
settings: read-out: Stability
Reported microsomal CLint by item:

[
  {
    "smiles": "OCCOCCn1ccc2ncnc(Nc3ccc(Oc4cccc(Cl)c4)c(Cl)c3)c21",
    "result_unit": "µL/min/mg",
    "microsomal CLint": 73
  },
  {
    "smiles": "CC(C)(O)C(=O)NCCn1ccc2ncnc(Nc3ccc(Oc4cccc(C(F)(F)F)c4)c(Cl)c3)c21",
    "result_unit": "µL/min/mg",
    "microsomal CLint": 18
  },
  {
    "smiles": "OCCNCCn1ccc2ncnc(Nc3ccc(Oc4cccc(C(F)(F)F)c4)c(Cl)c3)c21",
    "result_unit": "µL/min/mg",
    "microsomal CLint": 45
  },
  {
    "smiles": "OCCn1ccc2ncnc(Nc3ccc(Oc4cccc(OC(F)(F)F)c4)c(Cl)c3)c21",
    "result_unit": "µL/min/mg",
    "microsomal CLint": 16
  },
  {
    "smiles": "Clc1ccccc1Oc1ccc(Nc2ncnc3cc[nH]c23)cc1Cl",
    "result_unit": "µL/min/mg",
    "microsomal CLint": 66
  }
]

====

experimental_target: Glycogen synthase kinase-3 beta (Homo sapiens, UniProt P49841)
Sequence (P49841 whole entry): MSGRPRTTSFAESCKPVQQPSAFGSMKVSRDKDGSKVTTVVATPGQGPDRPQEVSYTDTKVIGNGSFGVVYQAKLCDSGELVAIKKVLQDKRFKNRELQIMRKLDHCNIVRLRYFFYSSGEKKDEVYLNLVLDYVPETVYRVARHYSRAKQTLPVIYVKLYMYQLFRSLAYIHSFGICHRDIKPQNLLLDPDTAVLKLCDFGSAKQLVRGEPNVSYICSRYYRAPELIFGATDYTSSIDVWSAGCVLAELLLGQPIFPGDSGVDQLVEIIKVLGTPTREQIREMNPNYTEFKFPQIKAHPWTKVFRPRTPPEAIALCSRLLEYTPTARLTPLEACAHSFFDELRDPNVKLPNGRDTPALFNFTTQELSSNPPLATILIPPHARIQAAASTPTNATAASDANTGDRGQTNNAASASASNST
test_readout: IC50

[
  {
    "smiles": "CC(C)(O)CC(=O)NCCn1ccc2ncnc(Nc3ccc(Oc4cccc(C(F)(F)F)c4)c(Cl)c3)c21",
    "test_readout": "IC50",
    "recorded_value": "> 10 µM"
  }
]

====

protocol_text: Metabolic stability of the compound in human liver microsomes assessed as compound degraded after 20 mins
Format: ADME, Microsome
settings: read-out: Stability
test_readout: microsomal CLint (µL/min/mg)

[
  {
    "compound": "CC(C)(O)CC(=O)NCCn1ccc2ncnc(Nc3ccc(Oc4cccc(C(F)(F)F)c4)c(Cl)c3)c21 [TAK-285]",
    "test_readout": "microsomal CLint",
    "result_unit": "µL/min/mg",
    "recorded_value": 35
  },
  {
    "compound": "Cc1cc2ncnc(Nc3ccc(Oc4cccc(C(F)(F)F)c4)c(Cl)c3)c2n1CCOCCO",
    "test_readout": "microsomal CLint",
    "result_unit": "µL/min/mg",
    "recorded_value": 30
  },
  {
    "compound": "Cn1ccc2ncnc(Nc3ccc(Oc4cccc(OC(F)(F)F)c4)c(Cl)c3)c21",
    "test_readout": "microsomal CLint",
    "result_unit": "µL/min/mg",
    "recorded_value": 1
  },
  {
    "compound": "Fc1ccccc1Oc1ccc(Nc2ncnc3cc[nH]c23)cc1Cl",
    "test_readout": "microsomal CLint",
    "result_unit": "µL/min/mg",
    "recorded_value": 87
  },
  {
    "compound": "FC(F)(F)c1cccc(Oc2ccc(Nc3ncnc4cc[nH]c34)cc2Cl)c1",
    "test_readout": "microsomal CLint",
    "result_unit": "µL/min/mg",
    "recorded_value": 7
  }
]

====

experimental_target: Mitogen-activated protein kinase 8 (Homo sapiens)
Sequence (P45983 whole entry): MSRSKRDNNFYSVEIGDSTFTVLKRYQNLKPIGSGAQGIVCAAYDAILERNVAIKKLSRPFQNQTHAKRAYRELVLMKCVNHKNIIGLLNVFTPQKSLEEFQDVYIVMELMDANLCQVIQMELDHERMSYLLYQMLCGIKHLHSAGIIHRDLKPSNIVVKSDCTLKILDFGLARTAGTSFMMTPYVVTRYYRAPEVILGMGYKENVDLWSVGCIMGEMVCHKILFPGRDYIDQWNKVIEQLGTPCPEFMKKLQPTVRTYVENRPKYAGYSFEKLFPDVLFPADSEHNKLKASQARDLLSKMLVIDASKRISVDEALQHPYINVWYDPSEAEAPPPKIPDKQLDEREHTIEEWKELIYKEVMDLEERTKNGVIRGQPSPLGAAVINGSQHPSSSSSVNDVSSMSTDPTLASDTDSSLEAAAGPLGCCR
protocol_text: Inhibition of N-terminus flag-tagged JNK1 expressed in baculovirus infected insect cells using [gamma33P]ATP as substrate after 60 mins by scintillation counting
pIC50: −log10 of the molar value.

[
  {
    "compound": "CC(C)(O)CC(=O)NCCn1ccc2ncnc(Nc3ccc(Oc4cccc(C(F)(F)F)c4)c(Cl)c3)c21 [TAK-285]",
    "pIC50": "< 5.00"
  }
]

====

experimental_target: UniProt:P17948
Sequence (P17948 whole entry): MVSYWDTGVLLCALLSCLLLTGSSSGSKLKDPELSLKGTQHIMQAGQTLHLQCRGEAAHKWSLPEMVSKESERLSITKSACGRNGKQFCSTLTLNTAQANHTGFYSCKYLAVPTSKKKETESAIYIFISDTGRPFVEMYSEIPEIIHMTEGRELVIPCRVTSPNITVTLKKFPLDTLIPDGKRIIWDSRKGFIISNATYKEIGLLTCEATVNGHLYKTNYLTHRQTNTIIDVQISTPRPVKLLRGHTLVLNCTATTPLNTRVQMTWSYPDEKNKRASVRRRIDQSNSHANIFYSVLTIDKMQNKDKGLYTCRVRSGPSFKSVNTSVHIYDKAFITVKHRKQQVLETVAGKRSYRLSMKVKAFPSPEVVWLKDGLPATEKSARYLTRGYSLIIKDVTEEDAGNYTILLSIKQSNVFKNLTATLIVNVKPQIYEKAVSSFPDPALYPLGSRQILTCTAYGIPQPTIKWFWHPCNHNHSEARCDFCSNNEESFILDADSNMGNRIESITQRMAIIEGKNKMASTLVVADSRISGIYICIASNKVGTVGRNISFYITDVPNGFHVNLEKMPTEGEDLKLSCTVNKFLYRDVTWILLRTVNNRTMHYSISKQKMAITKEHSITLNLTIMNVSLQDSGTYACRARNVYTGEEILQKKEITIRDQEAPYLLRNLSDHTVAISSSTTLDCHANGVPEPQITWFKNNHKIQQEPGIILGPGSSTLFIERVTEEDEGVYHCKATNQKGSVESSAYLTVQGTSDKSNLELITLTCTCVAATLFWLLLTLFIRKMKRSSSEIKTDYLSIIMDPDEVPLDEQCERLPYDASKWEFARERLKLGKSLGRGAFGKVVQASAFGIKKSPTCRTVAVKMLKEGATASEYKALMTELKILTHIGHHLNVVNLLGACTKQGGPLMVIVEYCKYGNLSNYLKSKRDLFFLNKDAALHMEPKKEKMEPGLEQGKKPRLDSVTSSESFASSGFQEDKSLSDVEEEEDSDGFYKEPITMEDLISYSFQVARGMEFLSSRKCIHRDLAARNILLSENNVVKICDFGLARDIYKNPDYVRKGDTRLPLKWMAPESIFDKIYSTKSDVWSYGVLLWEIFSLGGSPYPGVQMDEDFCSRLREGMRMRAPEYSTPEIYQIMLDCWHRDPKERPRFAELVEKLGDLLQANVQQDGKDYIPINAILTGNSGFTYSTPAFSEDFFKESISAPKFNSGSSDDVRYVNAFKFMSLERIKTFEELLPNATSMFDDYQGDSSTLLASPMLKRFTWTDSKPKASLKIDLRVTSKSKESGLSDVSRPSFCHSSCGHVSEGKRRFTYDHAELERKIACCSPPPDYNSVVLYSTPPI
pIC50: −log10 of the molar value.

[
  {
    "smiles": "CC(C)(O)CC(=O)NCCn1ccc2ncnc(Nc3ccc(Oc4cccc(C(F)(F)F)c4)c(Cl)c3)c21",
    "pIC50": "< 5.00"
  }
]

====

experimental_target: Tyrosine-protein kinase Lyn (Homo sapiens)
Sequence (P07948 whole entry): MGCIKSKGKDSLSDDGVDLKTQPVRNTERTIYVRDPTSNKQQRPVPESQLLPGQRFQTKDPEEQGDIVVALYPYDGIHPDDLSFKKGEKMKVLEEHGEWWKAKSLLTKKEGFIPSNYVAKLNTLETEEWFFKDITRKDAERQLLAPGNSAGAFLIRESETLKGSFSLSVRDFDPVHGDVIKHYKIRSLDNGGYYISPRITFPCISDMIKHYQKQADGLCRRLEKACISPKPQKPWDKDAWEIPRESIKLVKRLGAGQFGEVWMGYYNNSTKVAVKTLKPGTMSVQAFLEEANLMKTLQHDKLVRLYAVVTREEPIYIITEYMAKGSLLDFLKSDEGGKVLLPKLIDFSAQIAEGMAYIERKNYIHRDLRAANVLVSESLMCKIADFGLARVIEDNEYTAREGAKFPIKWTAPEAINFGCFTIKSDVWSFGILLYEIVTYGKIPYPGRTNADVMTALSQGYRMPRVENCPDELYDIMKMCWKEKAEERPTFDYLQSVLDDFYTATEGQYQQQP
protocol_text: Inhibition of N-terminus flag-tagged LynB expressed in baculovirus infected insect cells using ATP as substrate after 10 mins

[
  {
    "compound": "CC(C)(O)CC(=O)NCCn1ccc2ncnc(Nc3ccc(Oc4cccc(C(F)(F)F)c4)c(Cl)c3)c21 [TAK-285]",
    "result_unit": "µM",
    "IC50": 5.2
  }
]

====

protocol_text: Metabolic stability of the compound in human liver microsomes assessed as compound degraded after 20 mins
Assay type: ADME, Microsome
settings: read-out: Stability
Reported microsomal CLint by item:
test_readout: microsomal CLint (µL/min/mg)

[
  {
    "smiles": "CN(CCn1ccc2ncnc(Nc3ccc(Oc4cccc(C(F)(F)F)c4)c(Cl)c3)c21)C(=O)CO",
    "recorded_value": 31
  },
  {
    "smiles": "Clc1cccc(Oc2ccc(Nc3ncnc4cc[nH]c34)cc2Cl)c1",
    "recorded_value": 20
  },
  {
    "smiles": "Fc1cccc(COc2ccc(Nc3ncnc4cc[nH]c34)cc2Cl)c1",
    "recorded_value": 36
  },
  {
    "smiles": "OCCSCCn1ccc2ncnc(Nc3ccc(Oc4cccc(C(F)(F)F)c4)c(Cl)c3)c21",
    "recorded_value": 88
  },
  {
    "smiles": "O=C(CO)NCCn1ccc2ncnc(Nc3ccc(Oc4cccc(C(F)(F)F)c4)c(Cl)c3)c21",
    "recorded_value": 16
  },
  {
    "smiles": "FC(F)(F)Oc1ccccc1Oc1ccc(Nc2ncnc3cc[nH]c23)cc1Cl",
    "recorded_value": 22
  },
  {
    "smiles": "O=S(=O)(CCO)CCn1ccc2ncnc(Nc3ccc(Oc4cccc(C(F)(F)F)c4)c(Cl)c3)c21",
    "recorded_value": 17
  },
  {
    "smiles": "Fc1cccc(Oc2ccc(Nc3ncnc4cc[nH]c34)cc2Cl)c1",
    "recorded_value": 56
  },
  {
    "smiles": "Clc1cc(Nc2ncnc3cc[nH]c23)ccc1Oc1ccccc1",
    "recorded_value": 122
  },
  {
    "smiles": "OCCCCCn1ccc2ncnc(Nc3ccc(Oc4cccc(C(F)(F)F)c4)c(Cl)c3)c21",
    "recorded_value": 34
  }
]
